- EXPERIMENT SUMMARY: Absorption spectrum and colour of the n-decane solution of the dye
- Assay type: physicochemical
- COND: decane, at the absorption maximum wavelength
The following compounds are shown together with reported Gram extinction coefficient values.
Provide the reading as a plain figure in cm^2g^−1.

COMPOUND	SCALE UNIT	Gram extinction coefficient
Cc1nn(-c2ccccc2)c(O)c1N=Nc1ccc(N=Nc2ccccc2)cc1 [compound 1, reference compound]	cm^2g^−1	97000
CCCCc1nn(C(C)(C)C)c(O)c1N=Nc1ccc(N=Nc2ccccc2)cc1 [1-1]	cm^2g^−1	62000
CCCCc1ccc(N=Nc2ccc(N=Nc3c(CCCC)nn(C(C)(C)C)c3O)cc2)cc1 [1-2]	cm^2g^−1	61000

From here, focus on the item given below.
Prompt: Which Gram extinction coefficient reading was recorded for the compound CCc1nn(C(C)(C)C)c(O)c1N=Nc1ccc(N=Nc2ccccc2)cc1 [1-3] ?
Completion: 69000
